These measurements were taken from paper PMC7656562.

target: hCB1 (Homo sapiens); assay: cell-based
Sequence (P21554 whole entry): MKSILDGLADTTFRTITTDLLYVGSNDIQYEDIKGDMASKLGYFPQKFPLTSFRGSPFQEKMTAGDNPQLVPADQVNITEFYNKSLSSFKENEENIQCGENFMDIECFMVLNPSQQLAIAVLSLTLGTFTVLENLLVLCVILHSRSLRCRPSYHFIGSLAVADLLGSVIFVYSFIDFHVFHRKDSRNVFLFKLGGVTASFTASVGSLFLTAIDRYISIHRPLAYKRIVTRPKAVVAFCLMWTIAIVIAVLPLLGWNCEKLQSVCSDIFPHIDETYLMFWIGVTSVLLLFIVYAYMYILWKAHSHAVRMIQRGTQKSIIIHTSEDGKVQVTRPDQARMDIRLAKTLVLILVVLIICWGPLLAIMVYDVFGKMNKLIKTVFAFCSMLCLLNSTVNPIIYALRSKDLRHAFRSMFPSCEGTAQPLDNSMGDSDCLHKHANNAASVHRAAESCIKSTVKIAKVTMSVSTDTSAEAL
log10 of Kb listing for selected molecules.
QUANTITY MEASURED: log10 of Kb (log10 of the value in nM)

# MOLECULE, log10 of Kb
measured = [
    ("O=C(NCC1CCCCC1)NC1CCN(c2ncnc3c2nc(-c2ccccc2Cl)n3-c2ccc(C(F)(F)F)nc2)CC1 [Compound 42]", 1.88),
    ("CC1(NC(=O)NC2CCCCC2)CCN(c2ncnc3c2nc(-c2ccccc2Cl)n3-c2ccc(Cl)cc2)CC1 [Compound 47]", 0.85),
    ("O=C(Nc1cc(C(F)(F)F)[nH]n1)NC1CCN(c2ncnc3c2nc(-c2ccccc2Cl)n3-c2ccc(Cl)cc2)CC1 [Compound 39]", 2.43),
    ("CC1(NC(=O)NCc2ccccc2F)CCN(c2ncnc3c2nc(-c2ccccc2Cl)n3-c2ccc(Cl)cc2)CC1 [Compound 49]", 1.15),
    ("O=C(Nc1ccccn1)NC1CCN(c2ncnc3c2nc(-c2ccccc2Cl)n3-c2ccc(Cl)cc2)CC1 [Compound 31]", 2.18),
    ("O=C(NC1CCN(c2ncnc3c2nc(-c2ccccc2Cl)n3-c2ccc(Cl)cc2)CC1)NC1(C(F)(F)F)CCCC1 [Compound 20]", 1.08),
    ("CCCN(CC(F)(F)F)C(=O)NC1CCN(c2ncnc3c2nc(-c2ccccc2Cl)n3-c2ccc(Cl)cc2)CC1 [Compound 12]", 0.08),
]
